- subject.of.test: CFTR-mediated chloride transport (Homo sapiens, UniProt P13569)
- protocol: Corrector Assay A - membrane potential dye assay (enteroid cells)
- condition.set: % of chloride transport of triple combination control (1 μM (14S)-dispiro macrocycle + 3 μM tezacaftor + 300 nM ivacaftor)
measured.parameter: Corrector Assay A % activity

CC(C)(C)c1ccc2c(n1)N1C[C@@H](CC[C@@H](C3CCOCC3)Nc3cccc(n3)S(=O)(=O)NC2=O)CC1(C)C (single isomer, unassigned) [Compound 268]; +++ (+++ is >60%)
CC(C)(C)c1ccc(C2CC[C@@H]3CN(c4nc(C(C)(C)C)ccc4C(=O)NS(=O)(=O)c4cccc(n4)N2)C(C)(C)C3)nc1 (single isomer, unassigned) [Compound 186]; +++ (+++ is >60%)
CC(C)(C)c1ccc2c(n1)N1C[C@@H](CCC(c3ccc(C4COC4)cn3)Nc3cccc(n3)S(=O)(=O)NC2=O)CC1(C)C (stereo partly shown) [Compound 29]; +++ (+++ is >60%)
CC1(C)C[C@@H]2CC[C@H](c3cccc(C(F)(F)F)n3)Nc3cccc(n3)S(=O)(=O)NC(=O)c3ccc(-c4cccc(F)n4)nc3N1C2 [Compound 308]; ++ (++ is 30-60%)
CC1(C)C[C@@H]2CC[C@H](c3ccccn3)Nc3cccc(n3)S(=O)(=O)NC(=O)c3ccc(-c4cccc(OCCC5CC5)n4)nc3N1C2 [Compound 311]; +++ (+++ is >60%)

*Q* Can you look up Corrector Assay A % activity on CFTR-mediated chloride transport (Homo sapiens, UniProt P13569) for Cc1ccc2nc3c(cc2c1)C(=O)NS(=O)(=O)c1cccc(n1)N[C@H](c1cc(C(C)(C)C)ccn1)CC[C@@H]1CN3C(C)(C)C1 (single isomer, unassigned) [Compound 5] ?
*A* +++ (+++ is >60%)

*Q* Can you look up Corrector Assay A % activity on CFTR-mediated chloride transport (Homo sapiens, UniProt P13569) for CC(C)(C)c1ccc2c(n1)N1C[C@@H](CCC(c3ccccc3)n3ccc(n3)S(=O)(=O)NC2=O)CC1(C)C (single isomer, unassigned) [Compound 275] ?
*A* ++ (++ is 30-60%)

*Q* Can you look up Corrector Assay A % activity on CFTR-mediated chloride transport (Homo sapiens, UniProt P13569) for CC(C)(C)c1ccc2c(n1)N1C[C@@H](CC[C@@H](c3cccc(C#N)n3)Nc3cccc(n3)S(=O)(=O)NC2=O)CC1(C)C [Compound 210] ?
*A* ++ (++ is 30-60%)

*Q* Can you look up Corrector Assay A % activity on CFTR-mediated chloride transport (Homo sapiens, UniProt P13569) for CC(C)(C)c1ccc2c(n1)N1C[C@@H](CC[C@H](c3cccc(CN)n3)Nc3cccc(n3)S(=O)(=O)NC2=O)CC1(C)C [Compound 203] ?
*A* +++ (+++ is >60%)

*Q* Can you look up Corrector Assay A % activity on CFTR-mediated chloride transport (Homo sapiens, UniProt P13569) for CC(C)(C)c1ccc2c(n1)N1C[C@@H](CCC(c3ccc(N)cn3)Nc3cccc(n3)S(=O)(=O)NC2=O)CC1(C)C (stereo partly shown) [Compound 64] ?
*A* ++ (++ is 30-60%)

*Q* Can you look up Corrector Assay A % activity on CFTR-mediated chloride transport (Homo sapiens, UniProt P13569) for CC(C)(C)c1ccc2c(n1)N1C[C@@H](CC[C@@H](c3cccc(C4=CCOCC4)n3)Nc3cccc(n3)S(=O)(=O)NC2=O)CC1(C)C [Compound 149] ?
*A* + (+ is <30%)

*Q* Can you look up Corrector Assay A % activity on CFTR-mediated chloride transport (Homo sapiens, UniProt P13569) for CC(C)(C)c1ccc2c(n1)N1C[C@@H](CC[C@H](c3cccc(C#N)n3)Nc3cccc(n3)S(=O)(=O)NC2=O)CC1(C)C [Compound 211] ?
*A* +++ (+++ is >60%)

*Q* Can you look up Corrector Assay A % activity on CFTR-mediated chloride transport (Homo sapiens, UniProt P13569) for CC(C)(C)c1ccc2c(n1)N1C[C@@H](CC[C@@H](c3cc(-c4cn[nH]c4)ccn3)Nc3cccc(n3)S(=O)(=O)NC2=O)CC1(C)C (single isomer, unassigned) [Compound 68] ?
*A* +++ (+++ is >60%)

* * *

- subject.of.test: CFTR-mediated chloride transport (Homo sapiens)
- protocol: Corrector Assay A - membrane potential dye assay (enteroid cells)
- condition.set: % of chloride transport of triple combination control (1 μM (14S)-dispiro macrocycle + 3 μM tezacaftor + 300 nM ivacaftor)
measured.parameter: Corrector Assay A % activity

Sample answers from the record:
CC(C)(C)c1ccc2c(n1)N1C[C@@H](CCC(c3cc(CN)ccn3)Nc3cccc(n3)S(=O)(=O)NC2=O)CC1(C)C (single isomer, unassigned) [Compound 116]; +++ (+++ is >60%)
CC(C)(C)c1ccc2c(n1)N1C[C@@H](CCC(C(C)(C)C)Nc3cccc(n3)S(=O)(=O)NC2=O)CC1(C)C (single isomer, unassigned) [Compound 245]; ++ (++ is 30-60%)
CC1(C)C[C@@H]2CCC(c3ccccn3)Nc3cccc(n3)S(=O)(=O)NC(=O)c3ccc(-n4ccc(OCCC5(C(F)(F)F)CC5)n4)nc3N1C2 (single isomer, unassigned) [Compound 361]; +++ (+++ is >60%)
Cn1nccc1C1CC[C@@H]2CN(c3nc(C(C)(C)C)ccc3C(=O)NS(=O)(=O)c3cccc(n3)N1)C(C)(C)C2 (single isomer, unassigned) [Compound 285]; +++ (+++ is >60%)
CC(C)(C)c1ccc2c(n1)N1C[C@@H](CCC(c3cc(CN)ccn3)Nc3cccc(n3)S(=O)(=O)NC2=O)CC1(C)C (single isomer, unassigned) [Compound 115]; +++ (+++ is >60%)
CC(C)Cc1ccc(C2CC[C@@H]3CN(c4nc(C(C)(C)C)ccc4C(=O)NS(=O)(=O)c4cccc(n4)N2)C(C)(C)C3)nc1 (some centres unmarked) [Compound 180]; +++ (+++ is >60%)
CC(C)(C)c1ccnc([C@H]2CC[C@@H]3CN(c4nc(-c5cccc(OCCC6CC6)n5)ccc4C(=O)NS(=O)(=O)c4cccc(n4)N2)C(C)(C)C3)c1; +++ (+++ is >60%)
CC(C)(C)c1ccc2c(n1)N1C[C@@H](CC[C@H](c3cccc(C(F)(F)F)n3)Nc3cccc(n3)S(=O)(=O)NC2=O)CC1(C)C (single isomer, unassigned); ++ (++ is 30-60%)

*Q* Please report the recorded Corrector Assay A % activity for CC(C)(C)c1ccc2c(n1)N1C[C@@H](CCC(CC(O)CO)Nc3cccc(n3)S(=O)(=O)NC2=O)CC1(C)C (single isomer, unassigned) [Compound 30] .
*A* ++ (++ is 30-60%)

*Q* Please report the recorded Corrector Assay A % activity for CC(C)(C)c1ccc2c(n1)N1C[C@@H](CCC(c3ccc(C4CC4)cn3)Nc3cccc(n3)S(=O)(=O)NC2=O)CC1(C)C (some centres unmarked) [Compound 169] .
*A* ++ (++ is 30-60%)

* * *

- subject.of.test: CFTR-mediated chloride transport (Homo sapiens, UniProt P13569)
- protocol: Corrector Assay A - membrane potential dye assay (enteroid cells)
- condition.set: % of chloride transport of triple combination control (1 μM (14S)-dispiro macrocycle + 3 μM tezacaftor + 300 nM ivacaftor)
measured.parameter: Corrector Assay A % activity

Sample answers from the record:
CC(C)(C)c1ccc2c(n1)N1C[C@@H](CCC(c3ccncc3)Nc3cccc(n3)S(=O)(=O)NC2=O)CC1(C)C (single isomer, unassigned) [Compound 233]; ++ (++ is 30-60%)
CC(C)(C)c1ccc2c(n1)N1C[C@@H](CC[C@@H](c3cccc(N4CCCCC4)n3)Nc3cccc(n3)S(=O)(=O)NC2=O)CC1(C)C; + (+ is <30%)
CC(C)(C)c1ccc2c(n1)N1C[C@@H](CCC(C3CCN(C(=O)OCc4ccccc4)CC3)Nc3cccc(n3)S(=O)(=O)NC2=O)CC1(C)C (single isomer, unassigned) [Compound 255]; +++ (+++ is >60%)
CC(C)(C)c1ccnc([C@@H]2CC[C@@H]3CN(c4nc5ccccc5cc4C(=O)NS(=O)(=O)c4cccc(n4)N2)C(C)(C)C3)c1 (single isomer, unassigned) [Compound 9]; +++ (+++ is >60%)
CC(C)(C)c1ccc2c(n1)N1C[C@@H](CC[C@H](c3cccc(Br)n3)Nc3cccc(n3)S(=O)(=O)NC2=O)CC1(C)C (single isomer, unassigned); +++ (+++ is >60%)

*Q* Please report the recorded Corrector Assay A % activity for CN1CCN(c2ccc(C3CC[C@@H]4CN(c5nc(C(C)(C)C)ccc5C(=O)NS(=O)(=O)c5cccc(n5)N3)C(C)(C)C4)nc2)CC1 (some centres unmarked) [Compound 200] .
*A* +++ (+++ is >60%)

*Q* Please report the recorded Corrector Assay A % activity for CC(C)(C)c1ccc2c(n1)N1C[C@@H](CCC(c3cc(CCCN)ccn3)Nc3cccc(n3)S(=O)(=O)NC2=O)CC1(C)C (single isomer, unassigned) [Compound 110] .
*A* + (+ is <30%)

*Q* Please report the recorded Corrector Assay A % activity for CC(C)(C)c1ccc2c(n1)N1C[C@@H](CC[C@H](c3cccc(C4CCNCC4)n3)Nc3cccc(n3)S(=O)(=O)NC2=O)CC1(C)C .
*A* ++ (++ is 30-60%)

*Q* Please report the recorded Corrector Assay A % activity for CC(C)(C)c1ccc2c(n1)N1C[C@@H](CC[C@@H](C(=O)NC3CC4(CCNCC4)C3)Nc3cccc(n3)S(=O)(=O)NC2=O)CC1(C)C .
*A* + (+ is <30%)

*Q* Please report the recorded Corrector Assay A % activity for Cc1ccc2nc3c(cc2c1)C(=O)NS(=O)(=O)c1cccc(n1)N[C@H](c1cc(C(C)(C)C)ccn1)CC[C@@H]1CN3C(C)(C)C1 (single isomer, unassigned) [Compound 6] .
*A* ++ (++ is 30-60%)

*Q* Please report the recorded Corrector Assay A % activity for CC(C)(C)c1ccc2c(n1)N1CC(CCCOc3cccc(c3)S(=O)(=O)NC2=O)CC1(C)C (single isomer, unassigned) [Compound 257] .
*A* + (+ is <30%)
